system: Staphylococcus aureus; experiment: Antibacterial activity against Staphylococcus aureus assessed as inhibition zone at 25 ug/ml by diffusion method; assay type: functional; settings: read-out: IZ
Some compounds, each annotated with its measured zone of inhibition at 25 µg/mL.
Answer in mm, number only, no unit symbol.

1. COc1ccc(C(=O)N2CCN(C(=O)CCc3cn(Cc4cn(Cc5ccc(F)cc5)nn4)c4ccccc34)CC2)cc1 :: 12
2. O=C(CCc1c[nH]c2ccccc12)N1CCN(C(=O)c2ccc(Cl)cc2)CC1 :: 10
3. COc1ccc(S(=O)(=O)N2CCN(C(=O)CCc3cn(Cc4cn(Cc5ccc(F)cc5)nn4)c4ccccc34)CC2)cc1 :: 10
4. O=C(CCc1cn(Cc2ccc(F)cc2)c2ccccc12)N1CCN(C(=O)c2ccc(F)cc2)CC1 :: 13

Memo: O=C(CCc1c[nH]c2ccccc12)N1CCN(S(=O)(=O)c2ccccc2)CC1 , reported zone of inhibition at 25 µg/mL: 12

Memo: O=C(Cc1cn(Cc2ccc(F)cc2)c2ccccc12)N1CCN(S(=O)(=O)c2ccccc2)CC1 , reported zone of inhibition at 25 µg/mL: 15

Memo: Cc1ccc(C(=O)N2CCN(C(=O)Cc3c[nH]c4ccccc34)CC2)cc1 , reported zone of inhibition at 25 µg/mL: 12

Memo: Cc1ccc(C(=O)N2CCN(C(=O)CCc3cn(Cc4cn(Cc5ccc(F)cc5)nn4)c4ccccc34)CC2)cc1 , reported zone of inhibition at 25 µg/mL: 13

Memo: O=C(Cc1c[nH]c2ccccc12)N1CCN(C(=O)c2ccccc2)CC1 , reported zone of inhibition at 25 µg/mL: 10

Memo: O=C(CCc1cn(Cc2cn(Cc3ccc(F)cc3)nn2)c2ccccc12)N1CCN(C(=O)c2cccnc2)CC1 , reported zone of inhibition at 25 µg/mL: 6

Memo: O=C(Cc1c[nH]c2ccccc12)N1CCN(S(=O)(=O)c2ccc(F)cc2)CC1 , reported zone of inhibition at 25 µg/mL: 13

Memo: O=C(CCc1cn(Cc2cn(Cc3ccc(F)cc3)nn2)c2ccccc12)N1CCN(C(=O)c2ccc(F)cc2)CC1 , reported zone of inhibition at 25 µg/mL: 13

Memo: O=C(Cc1c[nH]c2ccccc12)N1CCN(S(=O)(=O)c2ccc(Cl)cc2)CC1 , reported zone of inhibition at 25 µg/mL: 10

* * *

tested on: Staphylococcus aureus; experiment: Antibacterial activity against Staphylococcus aureus assessed as inhibition zone at 25 ug/ml by diffusion method; type: functional; conditions: read-out: IZ
Some molecules, each annotated with its measured zone of inhibition at 25 µg/mL.
State the value with its unit after it.

Solved cases below.
1. O=C(CCc1c[nH]c2ccccc12)N1CCN(S(=O)(=O)c2ccc(F)cc2)CC1 :: 13 mm
2. O=C(CCc1cn(Cc2cn(Cc3ccc(F)cc3)nn2)c2ccccc12)N1CCN(C(=O)c2ccnc(Cl)c2)CC1 :: 13 mm
3. O=C(Cc1c[nH]c2ccccc12)N1CCN(C(=O)c2ccc(Cl)cc2)CC1 :: 13 mm
4. Cc1ccc(C(=O)N2CCN(C(=O)CCc3c[nH]c4ccccc34)CC2)cc1 :: 10 mm

Memo: Cc1ccc(S(=O)(=O)N2CCN(C(=O)CCc3cn(Cc4cn(Cc5ccc(F)cc5)nn4)c4ccccc34)CC2)cc1 , reported zone of inhibition at 25 µg/mL: 12 mm

Memo: O=C(CCc1cn(Cc2cn(Cc3ccc(F)cc3)nn2)c2ccccc12)N1CCN(C(=O)c2ccc(Cl)cc2)CC1 , reported zone of inhibition at 25 µg/mL: 6 mm

Memo: O=C(Cc1cn(Cc2ccc(F)cc2)c2ccccc12)N1CCN(S(=O)(=O)c2ccc(F)cc2)CC1 , reported zone of inhibition at 25 µg/mL: 15 mm

Memo: Cc1ccc(S(=O)(=O)N2CCN(C(=O)Cc3c[nH]c4ccccc34)CC2)cc1 , reported zone of inhibition at 25 µg/mL: 10 mm

Memo: O=C(Cc1cn(Cc2ccc(F)cc2)c2ccccc12)N1CCN(S(=O)(=O)c2ccc(Cl)cc2)CC1 , reported zone of inhibition at 25 µg/mL: 15 mm

Memo: O=C(CCc1cn(Cc2ccc(F)cc2)c2ccccc12)N1CCN(C(=O)c2ccccc2)CC1 , reported zone of inhibition at 25 µg/mL: 15 mm

Memo: O=C(Cc1cn(Cc2ccc(F)cc2)c2ccccc12)N1CCN(C(=O)c2ccccc2)CC1 , reported zone of inhibition at 25 µg/mL: 13 mm

Memo: O=C(CCc1cn(Cc2cn(Cc3ccc(F)cc3)nn2)c2ccccc12)N1CCN(S(=O)(=O)c2ccc(F)cc2)CC1 , reported zone of inhibition at 25 µg/mL: 13 mm

Memo: O=C(CCc1cn(Cc2cn(Cc3ccc(F)cc3)nn2)c2ccccc12)N1CCN(C(=O)c2ccccc2)CC1 , reported zone of inhibition at 25 µg/mL: 13 mm

Memo: O=C(CCc1cn(Cc2cn(Cc3ccc(F)cc3)nn2)c2ccccc12)N1CCN(S(=O)(=O)c2ccccc2)CC1 , reported zone of inhibition at 25 µg/mL: 9 mm

Memo: O=C(CCc1cn(Cc2cn(Cc3ccc(F)cc3)nn2)c2ccccc12)N1CCN(S(=O)(=O)c2ccccc2C(F)(F)F)CC1 , reported zone of inhibition at 25 µg/mL: 10 mm

Memo: O=C(CCc1cn(Cc2cn(Cc3ccc(F)cc3)nn2)c2ccccc12)N1CCN(C(=O)c2ccc([N+](=O)[O-])cc2)CC1 , reported zone of inhibition at 25 µg/mL: 10 mm

Memo: O=C(CCc1cn(Cc2ccc(F)cc2)c2ccccc12)N1CCN(C(=O)c2ccc(Cl)cc2)CC1 , reported zone of inhibition at 25 µg/mL: 13 mm

Memo: Cc1ccc(S(=O)(=O)N2CCN(C(=O)CCc3c[nH]c4ccccc34)CC2)cc1 , reported zone of inhibition at 25 µg/mL: 10 mm

Memo: Cc1ccc(S(=O)(=O)N2CCN(C(=O)CCc3cn(Cc4ccc(F)cc4)c4ccccc34)CC2)cc1 , reported zone of inhibition at 25 µg/mL: 15 mm

Memo: O=C(CCc1cn(Cc2cn(Cc3ccc(F)cc3)nn2)c2ccccc12)N1CCN(S(=O)(=O)c2ccc(Cl)cc2)CC1 , reported zone of inhibition at 25 µg/mL: 10 mm

Memo: O=C(CCc1cn(Cc2cn(Cc3ccc(F)cc3)nn2)c2ccccc12)N1CCN(C(=O)c2cccnc2Cl)CC1 , reported zone of inhibition at 25 µg/mL: 10 mm

Memo: O=C(CCc1c[nH]c2ccccc12)N1CCN(C(=O)c2ccc(F)cc2)CC1 , reported zone of inhibition at 25 µg/mL: 13 mm

Memo: O=C(CCc1cn(Cc2cn(Cc3ccc(F)cc3)nn2)c2ccccc12)N1CCN(C(=O)c2ccncc2F)CC1 , reported zone of inhibition at 25 µg/mL: 10 mm

Memo: Cc1ccc(C(=O)N2CCN(C(=O)CCc3cn(Cc4ccc(F)cc4)c4ccccc34)CC2)cc1 , reported zone of inhibition at 25 µg/mL: 13 mm

Memo: Cc1ccc(C(=O)N2CCN(C(=O)Cc3cn(Cc4ccc(F)cc4)c4ccccc34)CC2)cc1 , reported zone of inhibition at 25 µg/mL: 10 mm

Memo: O=C(CCc1cn(Cc2ccc(F)cc2)c2ccccc12)N1CCN(S(=O)(=O)c2ccccc2)CC1 , reported zone of inhibition at 25 µg/mL: 15 mm

Memo: Cc1ccc(S(=O)(=O)N2CCN(C(=O)Cc3cn(Cc4ccc(F)cc4)c4ccccc34)CC2)cc1 , reported zone of inhibition at 25 µg/mL: 13 mm

* * *

assay: Cytotoxicity against African green monkey Vero cells measured after 72 hrs by MTT assay; assay type: toxicity, cell-based; conditions: chlorocebus sabaeus
Outcome Measure: CC50 at 72 h (µg/mL)
Answer in µg/mL, number only, no unit symbol.

1) O=C(CCc1cn(Cc2cn(Cc3ccc(F)cc3)nn2)c2ccccc12)N1CCN(C(=O)c2ccnc(Cl)c2)CC1 :: 1080
2) O=C(CCc1cn(Cc2cn(Cc3ccc(F)cc3)nn2)c2ccccc12)N1CCN(C(=O)c2ccncc2F)CC1 :: 882

Then this molecule:
Memo: O=C(CCc1cn(Cc2cn(Cc3ccc(F)cc3)nn2)c2ccccc12)N1CCN(S(=O)(=O)c2ccccc2)CC1 , reported CC50 at 72 h: 1540

* * *

tested on: Staphylococcus aureus; assay: Antibacterial activity against Staphylococcus aureus assessed as inhibition zone at 25 ug/ml by diffusion method; type: functional; conditions: read-out: IZ
Outcome Measure: zone of inhibition at 25 µg/mL (mm)
Answer in mm, number only, no unit symbol.

1) O=C(CCc1cn(Cc2ccc(F)cc2)c2ccccc12)N1CCN(S(=O)(=O)c2ccc(Cl)cc2)CC1 :: 15

Memo: O=C(O)c1cn(C2CC2)c2cc(N3CCNCC3)c(F)cc2c1=O , reported zone of inhibition at 25 µg/mL: 18

Memo: O=C(Cc1cn(Cc2ccc(F)cc2)c2ccccc12)N1CCN(C(=O)c2ccc(Cl)cc2)CC1 , reported zone of inhibition at 25 µg/mL: 13

Memo: O=C(CCc1cn(Cc2cn(Cc3ccc(F)cc3)nn2)c2ccccc12)N1CCN(S(=O)(=O)c2ccc([N+](=O)[O-])cc2)CC1 , reported zone of inhibition at 25 µg/mL: 6
